The reported measurements were obtained from patent US20080091033A1.

# METHOD: solution stability test (decomposition percentage from absorbance before and after standing)
# Assay type: physicochemical
# STATED_CONDITIONS: 5% (w/v) in ethanol/methyl ethyl ketone (1/1 by volume), room temperature, 10 days of standing
Values of Decomposition percentage strictly less than 2% map to TRUE, and values of at least 2% map to FALSE.

Solved cases below.
CN1/C(=C\C=C2/CCC(/C=C/C3=[N+](C)c4ccccc4C3(C)C)=C2Cl)C(C)(C)c2ccccc21 [Example 3] = FALSE
CN1/C(=C\C=C2/CCC(/C=C/C3=[N+](C)c4ccccc4C3(C)C)=C2Cl)C(C)(C)c2ccccc21 [Example 2] = FALSE
CN1/C(=C\C=C2/CCC(/C=C/C3=[N+](C)c4ccccc4C3(C)C)=C2Cl)C(C)(C)c2ccccc21 [Comparative Example 1, reference compound] = FALSE

Kindly consider the entry below.
**Query** Does this compound meet the criterion Decomposition percentage < 2%? CN1/C(=C\C=C2/CCC(/C=C/C3=[N+](C)c4ccccc4C3(C)C)=C2Cl)C(C)(C)c2ccccc21 [Example 4]
**Result** TRUE
